# System: MS2 coat protein
# method summary: apparent Kd, MS2 coat protein; higher = weaker binding; RNA-MaP array
# protocol conditions: ligand present: theophylline; designed as: ON switch for theophylline
Documented apparent Kd across a set of sequences
reported metric: apparent Kd

[[record]]
monomer_sequence = "GUUGCACAUGAGGAUCACCCAUGUUUGGAUACCAGUCUCUGUAAUGACCCUUGGCAGCCACCAUAGACGCUUGAGUAGAGCCUGA"
result = "16 nM"

[[record]]
monomer_sequence = "GCUGAACAUGAGGAUCACCCAUGUCCGGAUACCAGCGGACCUCAUCGCCCUUGGCAGCCGAACCAACAGCUUGUGGUGUUCACUC"
result = "49.9 nM"

[[record]]
monomer_sequence = "CUUACACAUGAGGAUCACCCAUGUCAUGAUACCAGCCAAUACACUGGCCCUUGGCAGCAUCUCAGCCUCAGCUACAUUGACUGAC"
result = "27.1 nM"

[[record]]
monomer_sequence = "UAUCUAACGAAGGAUACCAGUACAUGAGAGUACAUGAGGAUCACCCAUGUUAGAUACGGGUACCCUUGGCAGCCUCACCUACACC"
result = "63.3 nM"

[[record]]
monomer_sequence = "UACAUACAUGAGGAUCACCCAUGUUGCGAUACCAGCGAAAGAGACCGCCCUUGGCAGCGCUCAUUUAGUUCCAUUCUUGAUCGAA"
result = "25.1 nM"

[[record]]
monomer_sequence = "CCUCAGCAAUUGGAUACCAGUACAUCGUAAGACAUGAGGAUCACCCAUGUGGGCUUGACAUACCCUUGGCAGCCAUCCUUGAUCC"
result = "252 nM"

[[record]]
monomer_sequence = "UCAGCACAUGAGGAUCACCCAUGUCGUGAUACCAGCCUGUGCGAAGGCCCUUGGCAGCACAGUCCCGAUUUGCUUAUAUGCACUU"
result = "36.9 nM"

